Each entry below carries its recorded IC50.
- Measurement Target: pERK1/2 (Thr202/Tyr204), NCI-1H441 (KRAS G12V) (Homo sapiens, UniProt P01116, G12V)
- Construct: pERK1/2 HTRF read-out
- Sequence (P01116 1-188 isoform P01116-2 G12V): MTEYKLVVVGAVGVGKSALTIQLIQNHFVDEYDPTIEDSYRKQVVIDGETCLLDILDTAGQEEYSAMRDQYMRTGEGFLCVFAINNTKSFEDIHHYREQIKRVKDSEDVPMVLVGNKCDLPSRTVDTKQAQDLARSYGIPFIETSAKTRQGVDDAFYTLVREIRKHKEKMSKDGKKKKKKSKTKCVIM
- Procedure Text: Assay of intracellular pERK1/2 (Thr202/Tyr204) phosphorylation in NCI-H441 cells (KRAS G12V)
- Assay type: cell-based
- Condition Summary: pERK1/2, 2 days, read-out: NCI-H441 (KRAS G12V) IC50

Example entries begin here.
* CC(c1cccnc1N)N1CCOc2nc(-c3cc(O)cc(F)c3C3CC3)c(F)c3nc(OC[C@@H]4CCN4CC(F)F)nc1c23 (single isomer, unassigned) [Compound 23] | > 1000 nM
* C[C@H](c1cccnc1N)N1CCOc2nc(-c3c(C(F)(F)F)ccc4[nH]ncc34)c(F)c3nc(OC[C@@]45CCCN4C[C@H](F)C5)nc1c23 (single isomer, unassigned) | > 1000 nM
* CCC(c1cccnc1N)N1CCOc2nc(-c3cc(N)c(F)c(F)c3C(F)(F)F)c(F)c3nc(OC[C@@]45CCCN4C[C@H](F)C5)nc1c23 (single isomer, unassigned) [Compound 217] | > 100 nM
* Cc1cc(N)cc(-c2nc3c4c(nc(OC[C@@]56CCCN5C[C@H](F)C6)nc4c2F)N(C(C)c2cccnn2)CCO3)c1C(F)(F)F (single isomer, unassigned) [Compound 127] | > 100 nM

Consider the record given below.
QUERY: Data request, read-out IC50, for Cc1c(C(F)(F)F)c(-c2cc3nc(OC[C@@]45CCCN4C[C@H](F)C5)nc4c3c(n2)OC[C@H](C)N4C(C)c2cccnc2N)c2c(C)n[nH]c2c1F (some centres unmarked)
RESULT: 0.4 nM

====

- Measurement Target: pERK1/2 (Thr202/Tyr204), PANC-1 (KRAS G121D) (Homo sapiens, UniProt P01116, G12D)
- Construct: pERK1/2 HTRF read-out
- Sequence (P01116 1-188 isoform P01116-2 G12D): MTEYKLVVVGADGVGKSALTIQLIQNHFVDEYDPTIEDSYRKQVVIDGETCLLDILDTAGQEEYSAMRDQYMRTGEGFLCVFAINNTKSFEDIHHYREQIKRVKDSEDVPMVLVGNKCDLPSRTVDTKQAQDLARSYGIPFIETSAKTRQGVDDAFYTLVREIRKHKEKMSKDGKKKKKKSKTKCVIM
- Procedure Text: Assay of intracellular pERK1/2 (Thr202/Tyr204) phosphorylation in PANC-1 cells (KRAS G12D)
- Format: cell-based
- Condition Summary: pERK1/2, 2 days, read-out: PANC-1 (KRAS G12D) IC50
pIC50: −log10 of the molar value.
Quantity Measured: pIC50

I: [2H]C1([2H])CN(C(C)c2cccnc2N)c2nc(OC[C@@]34CCCN3C[C@H](F)C4)nc3c(F)c(-c4cc(N)cc(C)c4C(F)(F)F)nc(c23)O1 (single isomer, unassigned) [Compound 153]
II: Cc1c(F)c(N)cc(-c2nc3c4c(nc(OC[C@@]56CCCN5C[C@H](F)C6)nc4c2F)N(C(C)c2cc(F)cnc2N)CCO3)c1C(F)(F)F (stereo partly drawn)
III: CC(c1cccnc1N)N1CCOc2nc(-c3cc(N)cc(Cl)c3C3CC3)c(F)c3nc(OC[C@@H]4CCCN4C)nc1c23 (stereo partly drawn)
QUERY: Thanks in advance: please rank these 3 entries by pIC50, highest to lowest. The labels, placed in the requested order, form the answer.
RESULT: I, II, III

====

- Measurement Target: pERK1/2 (Thr202/Tyr204), PANC-1 (KRAS G121D) (Homo sapiens, UniProt P01116, G12D)
- Construct: pERK1/2 HTRF read-out
- Procedure Text: Assay of intracellular pERK1/2 (Thr202/Tyr204) phosphorylation in PANC-1 cells (KRAS G12D)
- Format: cell-based
- Condition Summary: pERK1/2, 2 days, read-out: PANC-1 (KRAS G12D) IC50
- Description: Example 2: Assay of intracellular pERK1/2 (Thr202/Tyr204)phosphorylation 1. […] Fluorescence ratio=fluorescence value665 nm/fluorescence value615 nm Inhibition rate (%)=100−((fluorescence ratio of compound well−fluorescence ratio of negative control well)/(fluorescence ratio of positive control well−fluorescence ratio of negative control well))×100 […]
Quantity Measured: IC50

* Cc1c(F)c(N)cc(-c2nc3c4c(nc(OC[C@@H]5CCCN5C)nc4c2F)N(C(C)c2cccnc2N)CCO3)c1C(F)(F)F (single isomer, unassigned) [Compound 85] | 11 nM

QUERY: What measured IC50 goes with CC(c1cccnc1N)N1CCOc2nc(-c3cc(O)cc(Cl)c3C3CC3)c(F)c3nc(OC[C@@H]4COCCN4C)nc1c23 (stereo partly drawn) [Compound 134] ?
RESULT: > 100 nM

QUERY: And Cc1cc(N)cc(-c2nc3c4c(nc(OC[C@@H]5CC(F)(F)CN5C)nc4c2F)N(C(C)c2cccnc2N)CCO3)c1C(F)(F)F (stereo partly drawn) [Compound 70] ?
RESULT: > 100 nM

====

- Measurement Target: pERK1/2 (Thr202/Tyr204), NCI-1H358 (KRAS G12C) (Homo sapiens, UniProt P01116, G12C)
- Construct: pERK1/2 HTRF read-out
- Sequence (P01116 1-188 isoform P01116-2 G12C): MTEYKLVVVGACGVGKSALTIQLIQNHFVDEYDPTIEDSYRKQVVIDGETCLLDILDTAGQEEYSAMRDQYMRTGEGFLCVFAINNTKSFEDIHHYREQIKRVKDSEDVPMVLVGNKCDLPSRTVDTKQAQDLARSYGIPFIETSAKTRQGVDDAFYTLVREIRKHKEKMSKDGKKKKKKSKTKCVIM
- Procedure Text: Assay of intracellular pERK1/2 (Thr202/Tyr204) phosphorylation in NCI-H358 cells (KRAS G12C)
- Format: cell-based
- Condition Summary: pERK1/2, 2 days, read-out: NCI-H358 (KRAS G12C) IC50
pIC50: −log10 of the molar value.
Quantity Measured: pIC50

I: CCc1c(F)ccc2cc(O)cc(-c3nc4c5c(nc(OC[C@@]67CCCN6C[C@H](F)C7)nc5c3F)N(C(C)c3cccnc3N)[C@@H](C)CO4)c12 (single isomer, unassigned) [Compound 280]
II: CC(c1cccnc1N)N1CCOc2nc(-c3cc(O)cc(Cl)c3C3CC3)c(F)c3nc(OC[C@@]45CCCN4C[C@H](F)C5)nc1c23 (some centres unmarked) [Compound 4]
III: [2H]C([2H])(Oc1nc2c3c(nc(-c4cc(N)cc(C)c4C(F)(F)F)c(F)c3n1)OCCN2C(C)c1cccnc1N)[C@@H]1C[C@@H](F)CN1C([2H])([2H])[2H] (single isomer, unassigned) [Compound 132]
QUERY: Place the item with the largest pIC50 first, then continue in falling order, using the list above. Dear reader, please state the labels in the requested order.
RESULT: III, II, I

====

- Measurement Target: pERK1/2 (Thr202/Tyr204), NCI-1H358 (KRAS G12C) (Homo sapiens, UniProt P01116, G12C)
- Construct: pERK1/2 HTRF read-out
- Procedure Text: Assay of intracellular pERK1/2 (Thr202/Tyr204) phosphorylation in NCI-H358 cells (KRAS G12C)
- Assay type: cell-based
- Condition Summary: read-out: NCI-H358 (KRAS G12C) IC50, pERK1/2, 2 days
Quantity Measured: IC50 (nM)
Give the number; nM is assumed, so skip it.

Would you please look over these solved cases?
• CCc1c(F)ccc2cc(OC(=O)N(C)C)cc(-c3nc4c5c(nc(OC[C@@]67CCCN6C[C@H](F)C7)nc5c3F)N(C(C)c3cccnc3N)[C@@H](C)CO4)c12 (some centres unmarked) = 25
• CNC(=O)Oc1cc(Cl)c(C2CC2)c(-c2nc3c4c(nc(OC[C@@]56CCCN5C[C@H](F)C6)nc4c2F)N(C(C)c2cccnc2N)[C@@H](C)CO3)c1 (some centres unmarked) = 0.4
• CCNC(=O)Oc1cc(-c2nc3c4c(nc(OC[C@@]56CCCN5C[C@H](F)C6)nc4c2F)N(C(C)c2cccnc2N)[C@@H](C)CO3)c2c(CC)c(F)ccc2c1 (some centres unmarked) = 0.8

QUERY: Quick check: IC50 of CC(c1cccnc1N)N1CCOc2nc(-c3cc(O)cc4ccc(F)c(F)c34)c(F)c3nc(OC[C@@]45CCCN4C[C@H](F)C5)nc1c23 (some centres unmarked) ?
RESULT: 0.7

QUERY: Input CCc1c(F)ccc2cc(OC(=O)N3CCOCC3)cc(-c3nc4c5c(nc(OC[C@@]67CCCN6C[C@H](F)C7)nc5c3F)N(C(C)c3cccnc3N)[C@@H](C)CO4)c12 (some centres unmarked)
RESULT: 13

====

- Measurement Target: pERK1/2 (Thr202/Tyr204), NCI-1H358 (KRAS G12C) (Homo sapiens, UniProt P01116, G12C)
- Construct: pERK1/2 HTRF read-out
- Procedure Text: Assay of intracellular pERK1/2 (Thr202/Tyr204) phosphorylation in NCI-H358 cells (KRAS G12C)
- Assay type: cell-based
- Condition Summary: pERK1/2, 2 days, read-out: NCI-H358 (KRAS G12C) IC50
Quantity Measured: IC50 (nM)

• CC(c1cccnc1N)N1CCOc2nc(-c3cc(N)cc(Cl)c3C3CC3)c(F)c3nc(OC[C@@H]4CCCN4C)nc1c23 (stereo partly drawn) = 5
• [2H]C([2H])([2H])N1CCC[C@H]1COc1nc2c3c(nc(-c4cc(N)cc(C)c4C(F)(F)F)c(F)c3n1)OCCN2C(C)c1cccnc1N (single isomer, unassigned) [Compound 95] = 0.8

A: Cc1c(F)c(N)cc(-c2nc3c4c(nc(OC[C@@]56CCCN5C[C@H](F)C6)nc4c2F)N(C(C)c2cccnc2N)[C@H](C)CO3)c1C(F)(F)F (single isomer, unassigned) [Compound 255]
B: CC(c1cccnc1N)N1c2nc(OC[C@@]34CCCN3C[C@H](F)C4)nc3c(F)c(-c4cc(N)cc(Cl)c4C(F)(F)F)nc(c23)OC[C@@H]1C (single isomer, unassigned) [Compound 270]
QUERY: I'm curious whether A or B has the smaller IC50 number. Which is it? Identify your selection by its label.
RESULT: B
